- Tested on: HOP-92 NSCLC
- method.summary: NCI tumour cell line growth inhibition, 48 h; in the data active = GI50 below about 0.43 µM; inactive = the rest
Entry note: the call must match one of active, inactive

Inquiry: Dear all, I need the recorded test outcome for `CCN1CCC(C(=O)Nc2n[nH]c3nnc(-c4cccc(F)c4F)cc23)CC1` , thank you.
Reply text: inactive

Inquiry: # outcome recorded in this test, key = `CCc1cc(C(N)=O)ccc1-n1nc(C(C)C)c2c(-n3cnc(-c4cnn(C)c4)c3)ccnc21`
Reply text: inactive

Inquiry: Please let me know the test result on file for COc1ccc(C(=O)CC2(O)C(=O)Nc3c(Cl)ccc(Cl)c32)cc1 (centres undefined) .
Reply text: inactive

Inquiry: Tell me the assay call for COc1ccc([C@H]2c3cc(OC)c(OC)cc3C=C(C=O)C2CO)cc1OC (some centres undefined) please.
Reply text: inactive

Inquiry: Hi, sorry to bother you, what did the test record for `COc1ccc(CCNc2nc3ccccc3c3[nH]c4ccccc4c23)cc1OC` ?
Reply text: inactive

Inquiry: Each molecule tested received a call. Report the one for `CC/C=C/[C@@H]1C=C[C@@H]2CCC[C@H]2[C@@H]1CC[C@H](O)[C@H](C)N` .
Reply text: inactive

Inquiry: Dear colleague, could you share the recorded outcome for CC(=O)O[C@@H]1C=CC(=O)C2(CC(=O)O[C@@H]2/C=C(\C)CCC=C(C)C)C1 (some centres undefined) when you have a moment?
Reply text: inactive

Inquiry: Fill in: this test's call for `Cc1ncc(C(=O)Nc2ccc(CN3CCN(C)CC3)c(C(F)(F)F)c2)cc1C#Cc1c(N)ncc2ccc(C#N)cc12` is ___
Reply text: active

Inquiry: Call for entry C=C1C(=O)OC(CCCCCCCC)C1C(=O)O (centres undefined) :
Reply text: inactive

---

- Tested on: SK-MEL-5 melanoma
- method.summary: NCI tumour cell line growth inhibition, 48 h
readout.kind: GI50

Example entries begin here.
In [3]: df
Out[3]:
                                   compound  measured_result
0            CCCCc1ccc2nc(NC(=O)OC)[nH]c2c1            35 nM
1  C=C1C(=O)O[C@@H]2[C@@H]3O[C@@](C)(CC/C=C(\C)CCC[C@@H]2C)[C@H](O)C[C@@H]13          1720 nM

Consider now this further compound.
Inquiry: Form field: reported GI50 of C=C1C(=O)OC(CCCCCCCC)C1C(=O)O (stereo not drawn)
Reply text: 16100 nM

---

- System: HCT-15 colon
- method.summary: NCI tumour cell line growth inhibition, 48 h
readout.kind: TGI (µM)
Your answer should be a plain number; it is taken to be in µM.

Inquiry: Entry `COc1ccc(NC(=O)c2ccc(NC3=C(Cl)C(=O)N(Cc4ccccc4)C3=O)cc2)cc1` : reported TGI = ?
Reply text: 17.3

Inquiry: What value of TGI has been reported for the following compound? COc1ccc(C(=O)CC2(O)C(=O)Nc3c(Cl)ccc(Cl)c32)cc1 (stereo not given)
Reply text: 86.4

Inquiry: Please give the measured TGI for this compound: `COc1cc(/C=C2\C[C@H]3[C@@H]4CC=C5C[C@@H](N6CCCC6)CC[C@]5(C)[C@H]4CC[C@]3(C)[C@H]2O)cc(OC)c1OC`
Reply text: 26.5

---

Recorded TGI values for a group of molecules are listed next.
- Test system: UACC-62 melanoma
- method.summary: NCI tumour cell line growth inhibition, 48 h
Enter your answer as a number in µM; do not include the unit.

                                   molecule  measured_result
0  CC/C=C/[C@@H]1C=C[C@@H]2CCC[C@H]2[C@@H]1CC[C@H](O)[C@H](C)N             2.96
1             Cc1cc(Cl)n2c(nc3ccccc32)c1C#N             3.66

Inquiry: Would you kindly share the measured TGI for `CCN(CC)CCN(C)CC(C)(C)C(=O)/C=C/c1ccccc1` ?
Reply text: 26.9

Inquiry: // returns reported TGI for input `C/C(O)=C/c1nc2ccccc2nc1/C=C(/C)O`
Reply text: 45.4

Inquiry: Any idea what its TGI is? The molecule is `CSc1nc2ccccc2c(=O)n1/N=C1\C(=O)N(CN2CCOCC2)c2ccc(Cl)cc21`
Reply text: 61.3

Inquiry: Request the reported TGI associated with C=C1C(=O)OC2C1C(OC(=O)/C(=C/C)COC(C)=O)CC1(CO1)C1C(OC(=O)/C(=C/C)CO)C=C(C)C21 (configuration not stated)
Reply text: 3.01

Inquiry: I am curious: what TGI value has been reported for `Cc1cc(O)c(C(C)C)cc1NC(=O)Nc1cccc2ccccc12` ?
Reply text: 25.9

Inquiry: Please report the recorded TGI for `O=C(Nc1ccc(Cl)c(Cl)c1)Nc1ccc(Cl)c([N+](=O)[O-])c1` .
Reply text: 4.15

Inquiry: Find the recorded TGI belonging to CC(=O)N1N=C(c2c(O)ccc3ccccc23)CC1C(=O)c1ccco1 (configuration not stated) and report it.
Reply text: 32.8
